Below is a list of entries, each paired with its recorded pIC50 value.
system-name: human Werner helicase (Uniprot Q14191, amino acids 517-1235 with L1074F point mutation), WRN-BV08 (Homo sapiens, UniProt Q14191, L1074F)
Construct: Uniprot Q14191, amino acids 517-1235 with L1074F point mutation; TEV cleavable 8xHis tag (C, cleaved yes)
Sequence (Q14191 517-1235 L1074F): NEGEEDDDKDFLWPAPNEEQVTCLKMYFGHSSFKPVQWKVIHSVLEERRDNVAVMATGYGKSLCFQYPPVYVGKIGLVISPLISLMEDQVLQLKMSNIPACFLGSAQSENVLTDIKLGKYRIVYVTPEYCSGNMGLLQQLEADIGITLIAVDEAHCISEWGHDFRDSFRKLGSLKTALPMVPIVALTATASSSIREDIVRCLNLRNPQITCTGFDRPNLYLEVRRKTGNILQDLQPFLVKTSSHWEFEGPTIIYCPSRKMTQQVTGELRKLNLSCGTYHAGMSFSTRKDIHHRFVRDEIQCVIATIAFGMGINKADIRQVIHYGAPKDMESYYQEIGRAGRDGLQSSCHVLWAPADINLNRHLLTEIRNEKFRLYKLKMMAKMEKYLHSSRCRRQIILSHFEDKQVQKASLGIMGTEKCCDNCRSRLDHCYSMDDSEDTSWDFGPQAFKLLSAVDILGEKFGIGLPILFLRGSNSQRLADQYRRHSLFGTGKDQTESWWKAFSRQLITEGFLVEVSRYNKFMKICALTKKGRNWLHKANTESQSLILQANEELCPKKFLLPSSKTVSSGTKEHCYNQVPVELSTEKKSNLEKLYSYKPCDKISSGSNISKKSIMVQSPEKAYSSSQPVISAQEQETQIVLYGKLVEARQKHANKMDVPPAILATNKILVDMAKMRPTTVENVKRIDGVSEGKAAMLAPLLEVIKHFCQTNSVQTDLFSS
experimental-details: WRN (BV08) ADP-Glo Assay
pIC50: −log10 of the molar value.

CCc1c(N2CCN(C(=O)c3cnn(C)c3C)CC2)c(=O)n2nc(-c3ccnc(OC)c3)nc2n1CC(=O)Nc1ccc(C(F)(F)F)cc1Cl [Compound I-49]: 7.30 to 8.30
CCc1c(N2CCN(C(=O)CCO)CC2)c(=O)n2nc(C3=CCOCC3)nc2n1CC(=O)Nc1ccc(C(F)(F)F)cc1Cl [Compound I-24]: 7.30 to 8.30
CCc1c(N2CCN(C(=O)c3nocc3O)CC2)c(=O)n2nc(C3=CCOCC3)nc2n1CC(=O)Nc1ccc(C(F)(F)F)cc1Cl [Compound I-29]: > 8.30
CCc1c(N2CCN(C(=O)c3cnn(C)c3)CC2)c(=O)n2nc(-c3ccnc(OC)n3)nc2n1CC(=O)Nc1ccc(C(F)(F)F)cc1Cl [Compound I-64]: 7.30 to 8.30
CCc1c(N2CCC3C2CCN3C(=O)c2cnn(C)c2)c(=O)n2nc(C3=CCOCC3)nc2n1CC(=O)Nc1ccc(C(F)(F)F)cc1Cl (stereo not drawn) [Compound I-68]: 7.00 to 7.30

Okay, next one:
Return reported pIC50. Input molecule: CCc1c(N2CCN(C(=O)c3c(C)nn(C)c3C)CC2)c(=O)n2nc(-c3ccnc(OC)c3)nc2n1CC(=O)Nc1ccc(C(F)(F)F)cc1Cl [Compound I-50] 7.30 to 8.30

====

system-name: human Werner helicase (Uniprot Q14191, amino acids 517-1235 with L1074F point mutation), WRN-BV08 (Homo sapiens, UniProt Q14191, L1074F)
Construct: Uniprot Q14191, amino acids 517-1235 with L1074F point mutation; TEV cleavable 8xHis tag (C, cleaved yes)
experimental-details: WRN (BV08) ADP-Glo Assay
pIC50: −log10 of the molar value.
quantity-kind: pIC50

Completed entries (count: 5):
CCc1c(N2CCN(C(=O)c3c(O)cccc3OC)CC2)c(=O)n2nc(C3=CCOCC3)nc2n1CC(=O)Nc1ccc(C(F)(F)F)cc1Cl: 7.30 to 8.30
CCc1c(N2CCN(C(=O)CC#N)CC2)c(=O)n2nc(C3=CCOCC3)nc2n1CC(=O)Nc1ccc(C(F)(F)F)cc1Cl: 7.30 to 8.30
CCc1c(N2CCN(C(=O)c3ncnc(C)c3O)CC2)c(=O)n2nc(-c3ccnc(OC)c3F)nc2n1CC(=O)Nc1ccc(C(F)(F)F)cc1Cl: 7.30 to 8.30
CCc1c(N2CCN(C(=O)c3cn[nH]n3)CC2)c(=O)n2nc(C3=CCOCC3)nc2n1CC(=O)Nc1ccc(C(F)(F)F)cc1Cl: > 8.30
CCc1c(N2CCN(C(=O)c3sc(C(F)(F)F)cc3O)CC2)c(=O)n2nc(C3=CCOCC3)nc2n1CC(=O)Nc1ccc(C(F)(F)F)cc1Cl: 7.30 to 8.30

Return reported pIC50. Input compound: CCc1c(N2CCN(C(=O)c3cnn(C)c3)CC2)c(=O)n2nc(-c3ccnc(OC)c3)nc2n1CC(=O)Nc1ccc(S(F)(F)(F)(F)F)cc1Cl 7.30 to 8.30
